Test system: Fusarium oxysporum f. sp. vasinfectum
Assay: Antifungal activity against Fusarium oxysporum f. sp. vasinfectum assessed as growth inhibition at 50 ug/mL measured after 2 days post dose
Format: functional
Conditions: 48 h, read-out: GI
property name: inhibition of growth at 50 µg/mL (%)
Report the value in % with no unit label.

record smiles: Cc1nnsc1-c1nnc(/C=C/c2ccccc2)o1
inhibition of growth at 50 µg/mL / %: 23.7

Form: molecule = CCc1cnc(NC(=O)c2snnc2C)s1 ; inhibition of growth at 50 µg/mL = 5

Lab note: Cc1cccc(-c2nnc(-c3snnc3C)o2)c1 gave inhibition of growth at 50 µg/mL of 0

Form: molecule = CCCCCCCc1nnc(-c2snnc2C)o1 ; inhibition of growth at 50 µg/mL = 0

The reported inhibition of growth at 50 µg/mL of the molecule Cc1nnsc1-c1nnc(-c2ccc(=O)[nH]c2)o1 was 24.1

inhibition of growth at 50 µg/mL measured on COc1ccc(-c2nnc(-c3snnc3C)o2)cc1 = 0

inhibition of growth at 50 µg/mL reading for Cc1nnsc1C(=O)Nc1nc(-c2ccc(Cl)cc2)cs1 : 40

These data points were gathered from ChEMBL document CHEMBL3046238.
